Origin of measurements: patent US20260116991A1

- targetEntity: T1, polypeptide GC3pep (human)
- T1 construct: also called membrane proximal polypeptide GC3pep
- T1 peptide: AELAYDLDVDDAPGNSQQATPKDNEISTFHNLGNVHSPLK
- testProtocol: ELISA, GC3pep coated, antibody 0.0001 nM
quantityName: OD450 nm (OD450 nm)
State the answer as a number, implicitly in OD450 nm.

Worked cases, answers included:
binder: F1.42.8 (antibody, human IgG1, kappa, V domains shown, human-murine chimeric antibody) VH: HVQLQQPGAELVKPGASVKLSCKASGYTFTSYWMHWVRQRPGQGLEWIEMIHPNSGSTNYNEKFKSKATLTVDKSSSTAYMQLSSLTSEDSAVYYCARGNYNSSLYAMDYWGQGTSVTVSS VL: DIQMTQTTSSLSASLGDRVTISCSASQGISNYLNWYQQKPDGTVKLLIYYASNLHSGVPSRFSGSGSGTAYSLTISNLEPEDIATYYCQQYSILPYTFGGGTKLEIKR
OD450 nm (OD450 nm): 0.05
//
binder: F1.41.17 (antibody, human IgG1, kappa, V domains shown, human-murine chimeric antibody) VH: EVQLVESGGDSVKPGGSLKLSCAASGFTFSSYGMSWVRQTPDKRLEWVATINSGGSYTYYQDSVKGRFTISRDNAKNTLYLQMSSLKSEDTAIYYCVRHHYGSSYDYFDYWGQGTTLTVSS VL: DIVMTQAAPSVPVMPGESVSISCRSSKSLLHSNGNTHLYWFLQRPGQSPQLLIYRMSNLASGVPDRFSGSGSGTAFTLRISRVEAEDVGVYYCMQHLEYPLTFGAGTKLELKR
OD450 nm (OD450 nm): 0.05

In the following, a different binder is considered.
(Q) For F1.111.11 (antibody, human IgG1, kappa, V domains shown, human-murine chimeric antibody) VH: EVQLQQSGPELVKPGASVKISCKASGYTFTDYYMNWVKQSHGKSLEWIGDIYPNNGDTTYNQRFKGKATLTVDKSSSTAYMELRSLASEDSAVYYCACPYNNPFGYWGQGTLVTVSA VL: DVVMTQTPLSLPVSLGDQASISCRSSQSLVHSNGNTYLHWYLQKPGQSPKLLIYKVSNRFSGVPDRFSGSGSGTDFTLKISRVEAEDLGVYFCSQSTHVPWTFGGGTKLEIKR , what is its reported OD450 nm?
(A) 0.06
